# TEST_PROTOCOL: folding enthalpy; higher = less favourable; fluorescence melt of hairpins on a sequencing array, two-state fit
# CONDITIONS: sodium 0.088 M
Lab note: anything with folding enthalpy at or over -30 kcal/mol counts as T; the rest go in F.

// below: answered sequences
sequence_code="GATCGCATCGGCGATC ((((((....))))))" class_label=F
sequence_code="GCCGGGGGAAACTCCGGC (((((.(....).)))))" class_label=F
sequence_code="GTTGGTCGAAAGACAAC (((.(((....))))))" class_label=T

Task: Is folding enthalpy for GGGCTTGGAAACAAGTCC ((.((((....)))).)) at or above -30 kcal/mol?
Result: F

Task: // same read-out, input: GCAAAGCGAAAGCTTCGC ((.((((....)))).))
Result: T

Task: Lookup GATCATGTAATGATC ((((((...))))))
Result: F

Task: Field entry: GATATACGAAAGTACATC (((.(((....))).)))
Result: T

====

The following sequences are shown together with reported folding enthalpy values.
# TEST_PROTOCOL: folding enthalpy; higher = less favourable; fluorescence melt of hairpins on a sequencing array, two-state fit
# CONDITIONS: sodium 0.088 M
Please give a number only; it is taken to be in kcal/mol.

sequence_code="GAGAGGCGAAAGCCCTC (((.(((....))))))" parameter="folding enthalpy" recorded_value=-14.2

Task: GET /values?readout=folding enthalpy&item= GGTCATGCGAAAGCAACC (((..(((....))))))
Result: -8.01

Task: What do you get for GATCTTGCGCAAGATC ((((((....)))))) ?
Result: -54.1

Task: How about this sequence: GTTACACGAAAGTGAAAC (((.(((....))).)))
Result: -23.6

Task: Moving on to GCTGACGAAAGTCGGAGC ((((((....)))..)))
Result: -16.5

Task: Another: GACCGAGAAATCGGTC ((((((....))))))
Result: -34.4

Task: Further, for GATCCTTACTAGGATC ((((((....)))))) ?
Result: -36.5

Task: // same read-out, input: GGGCACGAAAGTGGACCC ((((((....)))..)))
Result: -17.9

Task: Lookup GATCGTCCTACGATC ((((((...))))))
Result: -38.6

Task: Another sequence to look at: GTGGCCGAAAGGCTGCAC ((((((....)))..)))
Result: -12.4

Task: Proceed to GTGCATACGAAAGTACAC (((..(((....))))))
Result: -8.91

Task: Also TCACTGAAAAGTGA (((((....))))) , if possible.
Result: -18.7

Task: What about GCAGCAGGAAACCGCTGC (((((.(....).))))) ?
Result: -41.3

====

# TEST_PROTOCOL: melting temperature; fluorescence melt of hairpins on a sequencing array, two-state fit, raised by 9.35 °C to match UV melts
# CONDITIONS: sodium 0.088 M
Recorded Tm, one value per entry.
Write it as a number; the unit °C goes unstated.

Illustrative cases are given below, each with its answer.
sequence_code="GCCCTGGGAAACCGGGGC ((((.((....)).))))" parameter=Tm unit_spec=°C recorded_value=66.2
sequence_code="GGATTCGCGAAAGCGTCC (((..(((....))))))" parameter=Tm unit_spec=°C recorded_value=29.5
sequence_code="GCCCTGCGAAAGCAAAGC ((..(((....)))..))" parameter=Tm unit_spec=°C recorded_value=29.2
sequence_code="GCCCTGCGAAAGCAGTGC ((.((((....)))).))" parameter=Tm unit_spec=°C recorded_value=58.5
sequence_code="GCCTGAACGAAAGTTGGC (((..(((....))))))" parameter=Tm unit_spec=°C recorded_value=45.5

Next sequence, please.
Task: So what's the measured Tm for this one? ATTGTGAAAACAAT (((((....)))))
Result: 39

====

# TEST_PROTOCOL: folding enthalpy; higher = less favourable; fluorescence melt of hairpins on a sequencing array, two-state fit
# CONDITIONS: sodium 0.088 M
PARAMETER: folding enthalpy (kcal/mol)
Dear colleague, please return just the value in kcal/mol, with no unit written.

Previously resolved entries follow.
sequence_code="GCTCCAGCGAAAGCTAGC (((..(((....))))))" unit_spec=kcal/mol recorded_value=-8.7
sequence_code="GTCAAATCGAAAGATGAC (((..(((....))))))" unit_spec=kcal/mol recorded_value=-16.1
sequence_code="GGATATGGAAACACATCC ((((.((....)).))))" unit_spec=kcal/mol recorded_value=-26.3
sequence_code="GCAAGAGGAAACTTTTGC ((((.((....)).))))" unit_spec=kcal/mol recorded_value=-26
sequence_code="GATCCTGCTAGGATC ((((((...))))))" unit_spec=kcal/mol recorded_value=-34
sequence_code="GGACAACCGAAAGGTTCC (((..(((....))))))" unit_spec=kcal/mol recorded_value=-10.9
sequence_code="GACAAACCGAAAGGTGTC (((..(((....))))))" unit_spec=kcal/mol recorded_value=-19.8
sequence_code="GAGCCGGGAAACCGGTTC ((.((((....)))).))" unit_spec=kcal/mol recorded_value=-34.5

Task: Record request: folding enthalpy value, item GCGTTAGAACGC ((((....))))
Result: -20.3

Task: What about GTCAACCGAAAGGTGGAC (((.(((....))).))) ?
Result: -30.5

Task: Moving on to GAGAAGCCGAAAGGCCTC (((..(((....))))))
Result: -12.7

Task: // next record CGGGACGGAAACGTGCCG (((.(((....))).)))
Result: -19.1

====

Quick list: Tm per entry.
# TEST_PROTOCOL: melting temperature; fluorescence melt of hairpins on a sequencing array, two-state fit, raised by 9.35 °C to match UV melts
# CONDITIONS: sodium 0.088 M
The answer is to be given in °C; state only the numeric part.

These solved cases illustrate the format of a correct answer.
sequence_code="GCGACAGCTCGC ((((....))))" recorded_value=67
sequence_code="GTTCGGGGAAACCCGAAC (((((((....)))))))" recorded_value=69
sequence_code="GTTATCGGAAACGATAGC (.(((((....))))).)" recorded_value=43.4
sequence_code="GATCATTCGTATGATC ((((((....))))))" recorded_value=48.1
sequence_code="GCTAGACGAAAGTCAAGC (((.(((....))).)))" recorded_value=52.7
sequence_code="GCGTAATACGC ((((...))))" recorded_value=51.9
sequence_code="GTCATCGAAAGATAGGAC ((((((....)))..)))" recorded_value=30.9
sequence_code="GAGTTCACGAAAGTGCTC (((..(((....))))))" recorded_value=28.1
sequence_code="GAACTAGGAAACTGGTTC ((((.((....)).))))" recorded_value=43
sequence_code="GGTGACGAAAGTCTGACC ((((((....)))..)))" recorded_value=39.7

Task: If you can, please state the reported Tm value of GATCCGTCGACGGATC ((((((....)))))) .
Result: 61.9

Task: Also need GATCCCGAAAGGGTAATC ((((((....)))..))) , thanks.
Result: 31.2

====

# TEST_PROTOCOL: folding enthalpy; higher = less favourable; fluorescence melt of hairpins on a sequencing array, two-state fit
# CONDITIONS: sodium 0.088 M
PARAMETER: folding enthalpy (kcal/mol)
The figure you give is taken to be in kcal/mol; do not add the unit.

Example entries and their recorded answers appear below.
sequence_code="GCTGCCGGAAACAGCAGC (((((.(....).)))))" parameter="folding enthalpy" recorded_value=-34.1
sequence_code="GGACCGCCGAAAGGCTCC (((..(((....))))))" parameter="folding enthalpy" recorded_value=-10
sequence_code="GCCGCGCGAAAGCAGGGC (((..((....))..)))" parameter="folding enthalpy" recorded_value=-23.1
sequence_code="TGCATGAAAATGCA (((((....)))))" parameter="folding enthalpy" recorded_value=-19.8
sequence_code="GCGTCGTGACGC ((((....))))" parameter="folding enthalpy" recorded_value=-22.7
sequence_code="GCATTGCGAAAGCGATGC ((((.((....)).))))" parameter="folding enthalpy" recorded_value=-38
sequence_code="GTTTACGGAAACGTAAAC (((((((....)))))))" parameter="folding enthalpy" recorded_value=-41.1
sequence_code="GAGCACGGAAACGTGTTC ((.((((....)))).))" parameter="folding enthalpy" recorded_value=-26.2

Task: GET /values?readout=folding enthalpy&item= GCGAGCACGAAAGTGCGC (((..(((....))))))
Result: -8.47

Task: How about GGATGGCCGAAAGGCTCC (((..(((....)))))) ?
Result: -11.6

Task: Param item: GTCTACCGAAAGGTCGAC (((.(((....))).)))
Result: -33.9
